# Potency annotations
tgt: Cytochrome P450 2C9 (Homo sapiens)
assay: Cytochrome P450 family 2 subfamily C member 9 (CYP2C9) small molecule antagonists: luciferase biochemical (cell-free) qHTS assay (AID 1645842); also: potency is read from the fitted curve at half-maximal effect; nearly all actives have a fitted effect of over 55% in size
condition: P450-Glo CYP2C9 enzyme assay, luciferin luminescence; series mostly up to 57.4 µM
Records with an inconclusive call do not appear. Activity calls are given as the source filed them. Calls follow the shape of the dose curve; as a rule, active = well fitted inhibition curve with a large enough effect in the repeat runs; inconclusive = weak or mixed curves; inactive = no such curve, though single readings can be large or run the other way.

Some compounds with known Potency results, for comparison:
CCOc1ccc2nc(N3CCC(C(=O)Nc4ccccc4CC)CC3)sc2c1 = 6.01 µM (active)
Cc1ccnc(NC(c2cc(C)ccc2O)c2ccc3cccnc3c2O)c1 (stereo not given) = 23.9 µM (active)
COc1ccc(NC(=O)CSc2oc(-c3cccs3)nc2S(=O)(=O)c2ccc(Br)cc2)c(OC)c1 = 0.477 µM (active)

Qu. Input CCOCCCNC(=O)C(=O)Nc1c2c(nn1-c1ccc(OC)cc1)CSC2 , output reported Potency.
Ans. 10.7 µM (active)

Qu. Input CC1(C#N)CCN(c2c(C(=O)N3CCC(C(=O)C4CC4)CC3)cnc3c(F)cc(F)cc23)CC1 , output reported Potency.
Ans. 9.52 µM (active)

Qu. Input CCc1ccc(S(=O)(=O)NCc2ccc3c(c2)CCN3C(=O)c2ccc(C)cc2)cc1 , output reported Potency.
Ans. 0.674 µM (active)

Qu. Input CCc1ccc(-n2c(SCc3ccccc3F)nc3[nH]ncc3c2=O)cc1 , output reported Potency.
Ans. 4.77 µM (active)

* * *

assay: qHTS Assay for Lipid Storage Modulators (AID 1519)
condition: Drosophila S3 cells, BODIPY lipid droplet/cell ratio, laser cytometry; measured here: lipid channel max response; cells loaded with oleic acid
Records with an inconclusive call do not appear.
# max response annotations
Give the value, in units of %, as a plain number.

Some compounds with known max response results, for comparison:
O=C(/C=C/c1ccccc1)c1ccc(O[C@H]2OC(CO)C(O)C(O)C2O)cc1O (stereo not given in full) = 22.6
CNC[C@H](O)[C@H](O)[C@H](O)[C@H](O)CO = -14.3
CC(=O)N[C@H](CC(C)C)C(=O)O = 16.6
O=c1cc(-c2ccc(O)cc2)oc2cc(O)ccc12 = 5.18
CCC(=O)O[C@@]1(C(=O)SCF)[C@@H](C)C[C@H]2[C@@H]3C[C@@H](F)C4=CC(=O)C=C[C@@]4(C)[C@]3(F)[C@@H](O)C[C@]21C = -5.95

Qu. Input CC1(C)S[C@@H]2[C@H](NC(=O)[C@@H](N)c3ccc(O)cc3)C(=O)N2[C@H]1C(=O)O , output reported max response.
Ans. -10.4

Qu. Input CC(=O)N[C@H](CS)C(=O)O , output reported max response.
Ans. 18.6

Qu. Input CC(C)=CCCC(C)C1CC[C@@]2(C)C3=C(CC[C@@]12C)C1(C)CCC(O)C(C)(C)C1CC3 (stereo not given in full) , output reported max response.
Ans. 15.7

Qu. Input N[C@H](Cc1cc(I)c(Oc2ccc(O)c(I)c2)c(I)c1)C(=O)O , output reported max response.
Ans. 3.42

Qu. Input CCCCCC(CC(=O)O)C(=O)O (stereo not given) , output reported max response.
Ans. 35.2

Qu. Input N[C@H](Cc1ccc(O)cc1)C(=O)O , output reported max response.
Ans. -23

Qu. Input C=C1CCC(C2CC(=O)OC2=O)C(=O)CCC2C1CC2(C)C (stereo not given) , output reported max response.
Ans. 26.1

Qu. Input C[N+](C)(C)CCOP(=O)([O-])OP(=O)(O)OCC1OC(n2ccc(N)nc2=O)C(O)C1O (stereo not given) , output reported max response.
Ans. 16.8

Qu. Input CC(C)n1c(/C=C\[C@@H](O)C[C@@H](O)CC(=O)O)c(-c2ccc(F)cc2)c2ccccc21 , output reported max response.
Ans. -6.63

Qu. Input C[C@@H]1OC(OC2C(OC3CC[C@@]4(C)C5CC=C6C7CC(C)(C)CC[C@@]7(C(=O)O)CCC6(C)C5(C)CCC4[C@]3(C)CO)OCC(O)C2O)C(O)C(O)C1O (stereo not given in full) , output reported max response.
Ans. 14.3

* * *

Test system: ICS
assay: qHTS profiling for inhibitors of Plasmodium falciparum proliferation (AID 504749); also: nearly all actives have a fitted effect of over 60% in size
condition: P. falciparum in erythrocytes, SYBR Green DNA, 72 h; series mostly up to 12.8 µM
Inconclusive results are not listed. The source made the active and inactive calls. Calls come from the whole dose curve; as a rule, active = well fitted inhibition curve with a large enough effect; inconclusive = small, poorly fitted or top-dose-only effect; inactive = flat fitted curve, though single readings scatter.
API: response.call in active, inactive

Qu. State the result this test recorded for COc1ccc(OC)c([C@H](O)CNC(=O)CN)c1 .
Ans. inactive

Qu. State the result this test recorded for CC1(C)S[C@@H]2[C@H](NC(=O)[C@@H](N)c3ccccc3)C(=O)N2[C@H]1C(=O)O[C@H]1OC(=O)c2ccccc21 .
Ans. inactive

Qu. State the result this test recorded for COC1CC(O[C@H]2/C(C)=C/CC3CC(C[C@]4(CCC(C)C(C5CCCCC5)O4)O3)OC(=O)[C@H]3C=C(C)/C(=N/O)C4OC/C(=C\C=C\[C@@H]2C)[C@@]43O)OC(C)C1O (some centres not stated) .
Ans. active

Qu. State the result this test recorded for Clc1ccc([C@H](Cn2ccnc2)OCc2c(Cl)cccc2Cl)c(Cl)c1 .
Ans. active

Qu. State the result this test recorded for C[C@@H]1O[C@H](O[C@@H]2\C=C/C=C\C=C/C=C\C[C@H](C)OC(=O)/C=C\[C@H]3O[C@@H]3C[C@H](O)C[C@]3(O)C[C@@H](O)[C@@H](C(=O)O)[C@H](C2)O3)[C@@H](O)[C@H](N)[C@@H]1O (stereo in doubt) .
Ans. inactive

Qu. State the result this test recorded for C[C@H](O)Cn1cnc2c1c(=O)n(C)c(=O)n2C .
Ans. inactive

Qu. State the result this test recorded for Cc1cccc(CN2CCN([C@@H](c3ccccc3)c3ccc(Cl)cc3)CC2)c1 .
Ans. active

* * *

Test system: CP286
assay: qHTS profiling for inhibitors of Plasmodium falciparum proliferation (AID 504749); also: nearly all actives have a fitted effect of over 60% in size; also: potency is read from the fitted curve at half-maximal effect
condition: P. falciparum in erythrocytes, SYBR Green DNA, 72 h; series mostly up to 12.8 µM
Records with an inconclusive call do not appear. Activity calls are given as the source filed them. The call rests on the fitted dose curve; in most records, active means well fitted inhibition curve with a large enough effect; inconclusive means small, poorly fitted or top-dose-only effect; inactive means flat fitted curve, though single readings scatter.
endpoint: Potency

Qu. Input COc1ccc2cc1Oc1ccc(cc1)CC1c3c(cc4c(c3Oc3cc5c(cc3OC)CCN(C)C5C2)OCO4)CCN1C (configuration not stated) , output reported Potency.
Ans. 3.98 µM (active)

* * *

assay: qHTS Assay for Lipid Storage Modulators (AID 1519)
condition: Drosophila S3 cells, BODIPY lipid droplet/cell ratio, laser cytometry; measured here: cell count channel max response; cells loaded with oleic acid
Records with an inconclusive call do not appear.
endpoint: max response (%)
Give the value, in units of %, as a plain number.

Some compounds with known max response results, for comparison:
COc1cc(OC)c2c(=O)c(OC)c(-c3ccc(OC)c(OC)c3)oc2c1 = 14.1
CC1(C)C[C@@H]2C(=O)CCC3O[C@@]3(C)CCC21 (some centres undefined) = 20.7
CC(=O)OC1CC[C@@]2(C)C(CC[C@@]3(C)C2CC=C2C4CC(C)(C)CC[C@]4(C(=O)O)CC[C@@]23C)C1(C)C (some centres undefined) = 12.5
CC1=C2C(=COC(C)C2C)C(=O)C(C(=O)O)=C1O (centres undefined) = -1.22
CC1C2CCC3C4CC=C5CC(N(C)C)CC[C@@]5(C)C4CC[C@@]32CN1C (some centres undefined) = 14

Qu. Input CNC1C(O)[C@@H]2OC(O[C@@H]3C(O)C(O)C(N)C[C@H]3N)C(N)C[C@H]2O[C@H]1O[C@@H]1OC(CO)C(N)C(O)C1O (some centres undefined) , output reported max response.
Ans. 16.9

Qu. Input NC(C(=O)NC1C(=O)N2C(C(=O)O)=C(Cl)CSC12)c1ccccc1 (centres undefined) , output reported max response.
Ans. 18.8

Qu. Input O=C(O)c1ccc2c(c1)OCO2 , output reported max response.
Ans. 14.4

Qu. Input C=CCSCC=C , output reported max response.
Ans. -10.4

Qu. Input CC(CCC(=O)O)C1CCC2C3CC[C@H]4CC(O)CC[C@@]4(C)C3CC(O)[C@]12C (some centres undefined) , output reported max response.
Ans. -1.9

* * *

tgt: Rap guanine nucleotide exchange factor 4 (Homo sapiens)
assay: Confirmatory qHTS for antagonist of cAMP-regulated guanine nucleotide exchange factor 4 (EPAC2) (AID 1645885); also: nearly all actives have a fitted effect of over 25% in size
condition: EPAC2 Rap1B-BODIPY-GDP exchange fluorescence, biochemical; series mostly up to 12.7 µM
Records with an inconclusive call do not appear. Calls of active or inactive are those of the source. Calls come from the whole dose curve; as a rule, active = well fitted inhibition curve with a large enough effect; inconclusive = small, poorly fitted or top-dose-only effect; inactive = no such curve, though single readings can be large or run the other way.
API: response.call in active, inactive

O=C(O)CN1C(=O)/C(=C\c2cccc(OCc3ccc(Cl)cc3Cl)c2)SC1=S = active
CCCC(C(=O)Nc1ccc(C)c(S(=O)(=O)N2CCOCC2)c1)c1ccccc1 (stereo not given) = inactive

Qu. State the result this test recorded for N#C/C(=C\c1ccc(C(=O)O)cc1)c1nc2sc3c(c2c(=O)[nH]1)CCCC3 .
Ans. inactive

Qu. State the result this test recorded for Cc1ccn2cc(CNC(=O)c3cccs3)nc2c1 .
Ans. inactive

Qu. State the result this test recorded for COc1ccccc1N1CCN(c2ccc3c(c2)S(=O)(=O)c2cccc(C(=O)NCC4CC4)c2C3=O)CC1 .
Ans. inactive

# credit: PubChem BioAssay (NCATS)
